System: L. amazonensis promastigotes
METHOD: In vitro leishmanicidal activity on L. amazonensis promastigotes (Alamar Blue)
Type: cell-based, Leishmania amazonensis
STATED_CONDITIONS: Leishmania amazonensis, 72 h, promastigotes, 72 h; ± SD; read-out: L. amazonensis Promastigotes IC50
pIC50: −log10 of the molar value.
Let's look at some compounds and their measured pIC50.
PROPERTY: pIC50

{"COMPOUND": "CC(=O)ON=C/C=C(\\C)CCC=C(C)C [Compound 3, citral oxime acetate]", "PROPERTY": "pIC50", "OPERATOR_SYMBOL": "<", "VALUE_REPORTED": 4.00}
{"COMPOUND": "CC(C)=CCC/C(C)=C/C=NNC(N)=O", "PROPERTY": "pIC50", "OPERATOR_SYMBOL": "=", "VALUE_REPORTED": 4.36}
{"COMPOUND": "CC(C)=CCCC(C)=CC=NNc1ccc([N+](=O)[O-])cc1[N+](=O)[O-] [Compound 9, citral 2,4-dinitrophenylhydrazone]", "PROPERTY": "pIC50", "OPERATOR_SYMBOL": "=", "VALUE_REPORTED": 4.97}
{"COMPOUND": "CC(C)=CCC/C(C)=C/C=NOC(=O)c1ccc([N+](=O)[O-])cc1 [Compound 6, citral oxime 4-nitrobenzoate]", "PROPERTY": "pIC50", "OPERATOR_SYMBOL": "=", "VALUE_REPORTED": 4.47}

---

Let's look at some compounds and their measured CC50.
METHOD: Cytotoxicity on murine macrophages
Assay type: cell-based
STATED_CONDITIONS: mouse, J774.A1 macrophage cell line, ± SD

{"COMPOUND": "CC(C)=CCC/C(C)=C/C=NOC(=O)c1ccc([N+](=O)[O-])cc1 [Compound 6, citral oxime 4-nitrobenzoate]", "CC50": "> 300 µM"}
{"COMPOUND": "CC(C)=CCC/C(C)=C/C=NNC(N)=O", "CC50": "> 300 µM"}
{"COMPOUND": "CC(C)=CCC/C(C)=C/C=NO", "CC50": "> 300 µM"}
{"COMPOUND": "CC(C)=CCCC(C)=CC=O", "CC50": "> 300 µM"}
{"COMPOUND": "CCCCCCCCCCCCCCCCOP(=O)([O-])OCC[N+](C)(C)C [Miltefosine, reference compound]", "CC50": "72.2 µM"}
{"COMPOUND": "CC(C)=CCC/C(C)=C/C=NOC(=O)c1ccccc1 [Compound 5, citral oxime benzoate]", "CC50": "> 300 µM"}

---

METHOD: In vitro leishmanicidal activity on L. amazonensis promastigotes (Alamar Blue)
Type: cell-based, Leishmania amazonensis
STATED_CONDITIONS: mouse; CC50 J774.A1 macrophages / IC50 L. amazonensis promastigotes; read-out: Selectivity SI (CC50/IC50), promastigotes
Tag: yes (1) if measured selectivity ratio is not below 9, no (0) if it is.

{"MOLECULE": "CCCCCCCCCCCCCCCCOP(=O)([O-])OCC[N+](C)(C)C [Miltefosine, reference compound]", "CLASS_LABEL": "yes (1)"}
{"MOLECULE": "CC(C)=CCC/C(C)=C/C=NNC(N)=O", "CLASS_LABEL": "yes (1)"}
{"MOLECULE": "CC(C)=CCC/C(C)=C/C=NOC(=O)c1ccccc1 [Compound 5, citral oxime benzoate]", "CLASS_LABEL": "yes (1)"}
{"MOLECULE": "CC(C)=CCCC(C)=CC=NNc1ccc([N+](=O)[O-])cc1[N+](=O)[O-] [Compound 9, citral 2,4-dinitrophenylhydrazone]", "CLASS_LABEL": "no (0)"}
{"MOLECULE": "CC(C)=CCCC(C)=CC=O", "CLASS_LABEL": "no (0)"}
{"MOLECULE": "CC(C)=CCC/C(C)=C/C=NO", "CLASS_LABEL": "yes (1)"}
